This section presents IC50 values reported for Proto-oncogene tyrosine-protein kinase Src (Homo sapiens) in the literature.
Endpoint name: IC50

[[record]]
molecule = "Cc1cnc2[nH]cc(C(=O)c3c(F)ccc(NS(=O)(=O)C4CCCC4)c3F)c2c1"
measured_on = "Proto-oncogene tyrosine-protein kinase Src (Homo sapiens)"
endpoint_name = "IC50"
measured = "≤ 10 µM"

[[record]]
molecule = "COc1c(NC(=O)Nc2ccc(Oc3ccnc(Nc4ccccc4)c3)c3ccccc23)cc(C(C)(C)C)cc1C(=O)NCCN1CCC1"
measured_on = "Proto-oncogene tyrosine-protein kinase Src (Homo sapiens)"
endpoint_name = "IC50"
measured = "0.074 µM"

[[record]]
molecule = "COc1cc(Oc2ccccn2)ccc1-c1c(C#C[C@@H]2[C@H]3CN(C(=O)/C=C/CN(C)C)C[C@@H]23)n(C)c2ncnc(N)c12"
measured_on = "Proto-oncogene tyrosine-protein kinase Src (Homo sapiens)"
endpoint_name = "IC50"
measured = "0.01 to 1 µM"

[[record]]
molecule = "C=CC(=O)N1CC[C@@H](N2CC(C#Cc3c(-c4ccc(Cl)cn4)c4c(N)ncnc4n3C)C2)[C@@H](O)C1"
measured_on = "Proto-oncogene tyrosine-protein kinase Src (Homo sapiens)"
endpoint_name = "IC50"
measured = "0.01 to 1 µM"

[[record]]
molecule = "Cc1ccc(-n2nc(C(C)(C)C)cc2NC(=O)Nc2ccc(Oc3ccnc(Nc4ccc5c(c4)CC(=O)N5C)n3)c3ccccc23)cc1"
measured_on = "Proto-oncogene tyrosine-protein kinase Src (Homo sapiens)"
endpoint_name = "IC50"
measured = "0.113 µM"

[[record]]
molecule = "N#Cc1ccnc2[nH]cc(C(=O)c3c(F)ccc(NS(=O)(=O)C4CCCCC4)c3F)c12"
measured_on = "Proto-oncogene tyrosine-protein kinase Src (Homo sapiens)"
endpoint_name = "IC50"
measured = "≤ 10 µM"

[[record]]
molecule = "CC(C)S(=O)(=O)Nc1ccc(F)c(C(=O)c2c[nH]c3ncc(Cl)cc23)c1F"
measured_on = "Proto-oncogene tyrosine-protein kinase Src (Homo sapiens)"
endpoint_name = "IC50"
measured = "≤ 10 µM"

[[record]]
molecule = "CCCCS(=O)(=O)Nc1ccc(F)c(C(=O)c2c[nH]c3ncc(-c4ccc(Cl)cc4)cc23)c1F"
measured_on = "Proto-oncogene tyrosine-protein kinase Src (Homo sapiens)"
endpoint_name = "IC50"
measured = "≤ 10 µM"

[[record]]
molecule = "Cc1ccc(NC(=O)c2cccc(C(F)(F)F)c2)cc1C(=O)Nc1cnc(Nc2ccc(S(=O)(=O)CCCN3CCCC3)cc2)nc1"
measured_on = "Proto-oncogene tyrosine-protein kinase Src (Homo sapiens)"
endpoint_name = "IC50"
measured = "0.0038 µM"

[[record]]
molecule = "Cc1ccccc1-c1cc2cnc(Nc3cccc([S+](C)[O-])c3)nc2c(=O)n1C (stereo not drawn)"
measured_on = "Proto-oncogene tyrosine-protein kinase Src (Homo sapiens)"
endpoint_name = "IC50"
measured = "0.001 to 0.5 µM"

[[record]]
molecule = "Cn1c(C#CC2CC3(C2)CN(C(=O)/C=C/CN2CC(O)C2)C3)c(-c2ccc(Oc3ccccc3)cc2)c2c(N)ncnc21"
measured_on = "Proto-oncogene tyrosine-protein kinase Src (Homo sapiens)"
endpoint_name = "IC50"
measured = "≤ 0.01 µM"

[[record]]
molecule = "Cc1cc(Nc2nccc(Oc3ccc(NC(=O)Nc4cc(C(C)C)nn4-c4cccc(OCCN5CCOCC5)c4)c4ccccc34)n2)cc2cn[nH]c12"
measured_on = "Proto-oncogene tyrosine-protein kinase Src (Homo sapiens)"
endpoint_name = "IC50"
measured = "< 0.001 µM"

[[record]]
molecule = "COc1ccc(Nc2ccc(Nc3ncnc(Nc4cc(OC)c(OC)c(OC)c4)n3)cc2)cc1"
measured_on = "Proto-oncogene tyrosine-protein kinase Src (Homo sapiens)"
endpoint_name = "IC50"
measured = "0.843 to 5.06 µM"

[[record]]
molecule = "C=CC(=O)N1CC[C@@H](N2CC(C#Cc3c(-c4cccc5c4cnn5C)c4c(N)ncnc4n3C)C2)[C@@H](O)C1"
measured_on = "Proto-oncogene tyrosine-protein kinase Src (Homo sapiens)"
endpoint_name = "IC50"
measured = "1 to 10 µM"

[[record]]
molecule = "COc1ncc(-c2cnc3[nH]cc(C(=O)c4c(F)ccc(NS(=O)(=O)c5ccccc5F)c4F)c3c2)cn1"
measured_on = "Proto-oncogene tyrosine-protein kinase Src (Homo sapiens)"
endpoint_name = "IC50"
measured = "≤ 10 µM"

